- Tested on: HOP-62 NSCLC
- Test Summary: NCI tumour cell line growth inhibition, 48 h
Assay Endpoint: TGI

Kindly note the recorded TGI for CN(C)CC(O)c1ccc(Cl)c2ccccc12 (stereo not given) , which is > 100 µM

Lab note: `CN(C)CCNC(=O)Cn1ccc(=O)c2cc([N+](=O)[O-])ccc21` gave TGI of > 100 µM

Just so you know, measured TGI for CC(N=NNc1ccc(-c2nc3ccccc3[nH]2)cc1)C(=O)O (stereo not given) came out at > 100 µM

Note to self: TGI recorded for O=S(=O)(/N=c1\scc(-c2ccccc2)n1-c1ccccc1)c1ccc(N2N=C3c4ccccc4CC3C2c2ccc(Cl)cc2)cc1 (stereo not given) was > 100 µM

// TGI value for `Cc1c2cnccc2c(C)c2c1c1cc(C#N)ccc1n2C` : 1.42 µM
